molecular target: Signal transducer and activator of transcription 3 (Homo sapiens, UniProt P40763); assay: Inhibition of IL-6 induced STAT3 transcriptional activity in human HepG2 cells incubated for 1 hr followed by stimulation with IL-6 for 5.5 hrs by luciferase reporter gene assay; format: cell-based; details: hepg2
Sequence (P40763 whole entry): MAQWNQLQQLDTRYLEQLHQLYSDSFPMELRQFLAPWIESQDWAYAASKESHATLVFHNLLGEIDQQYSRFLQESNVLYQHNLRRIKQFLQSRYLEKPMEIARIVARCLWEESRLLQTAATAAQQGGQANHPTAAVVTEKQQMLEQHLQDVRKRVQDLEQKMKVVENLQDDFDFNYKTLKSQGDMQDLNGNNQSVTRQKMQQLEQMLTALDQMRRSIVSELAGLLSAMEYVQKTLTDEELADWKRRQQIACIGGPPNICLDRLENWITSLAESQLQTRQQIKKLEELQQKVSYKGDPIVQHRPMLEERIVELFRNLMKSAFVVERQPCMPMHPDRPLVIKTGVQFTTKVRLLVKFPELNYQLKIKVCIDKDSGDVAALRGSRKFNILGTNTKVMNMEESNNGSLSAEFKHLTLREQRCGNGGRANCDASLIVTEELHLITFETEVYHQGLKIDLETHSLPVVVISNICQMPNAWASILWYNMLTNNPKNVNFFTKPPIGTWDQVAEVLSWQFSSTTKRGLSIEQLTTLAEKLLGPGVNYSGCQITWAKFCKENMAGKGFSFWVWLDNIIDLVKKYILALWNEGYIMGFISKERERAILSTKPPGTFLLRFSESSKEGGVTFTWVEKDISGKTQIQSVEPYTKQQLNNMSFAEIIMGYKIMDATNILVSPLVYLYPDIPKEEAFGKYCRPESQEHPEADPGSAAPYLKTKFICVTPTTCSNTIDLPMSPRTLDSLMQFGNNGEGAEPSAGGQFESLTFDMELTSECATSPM
property-name: IC50 (µM)
Response body: numeric value in µM, unit text excluded.

Ask | Entry under review: CCCC(C)Oc1ccc(C(=O)Nc2ccc3nc(SCC(=O)N[C@@H](C)c4ccccc4)sc3c2)cc1 (stereo partly specified) . Reported IC50?
Reply | 1.6

* * *

// reported pIC50 for each item listed
tested on: MCF7; test: Antiproliferative activity against human MCF7 cells expressing low levels of STAT3 assessed as inhibition of cell growth incubated for 72 hrs by MTT assay; format: functional, cell-based; settings: MCF7, 72 h
pIC50: −log10 of the molar value.

Ask | Entry under review: O=[N+]([O-])c1ccc2c(c1)S(=O)(=O)C=C2 . Reported pIC50?
Reply | 5.77

Further cases:
Ask | Entry under review: CCCC(C)Oc1ccc(C(=O)Nc2ccc3nc(SCC(=O)N[C@@H](C)c4ccccc4)sc3c2)c(OC)c1C (stereo partly drawn) . Reported pIC50?
Reply | < 4.70

Ask | Entry under review: CCCC(C)Oc1ccc(C(=O)Nc2ccc3nc(SCC(=O)N[C@@H](C)c4ccc(OC)cc4)sc3c2)c(OC)c1C (stereo partly drawn) . Reported pIC50?
Reply | < 4.70

* * *

target: Signal transducer and activator of transcription 3 (Homo sapiens, UniProt P40763); assay: Inhibition of IL-6 induced STAT3 transcriptional activity in human HepG2 cells incubated for 1 hr followed by stimulation with IL-6 for 5.5 hrs by luciferase reporter gene assay; format: cell-based
property-name: pIC50
pIC50 field: float, defined as -log10 of concentration (mol/L).

Ask | Entry under review: CCCC(C)Oc1ccc(C(=O)Nc2ccc3nc(SCC(=O)N[C@@H](C)c4ccccc4)sc3c2)c(C)c1C (some centres undefined) . Reported pIC50?
Reply | 6.34

Further cases:
Ask | Entry under review: COc1ccc([C@H](C)NC(=O)CSc2nc3ccc(NC(=O)c4ccc(OCCN(C)C)c(C)c4OC)cc3s2)cc1 . Reported pIC50?
Reply | 6.28

Ask | Entry under review: CCCC(C)Oc1ccc(C(=O)Nc2ccc3nc(SCC(=O)N[C@@H](C)c4ccccc4)sc3c2)cc1OC (some centres undefined) . Reported pIC50?
Reply | 5.85

* * *

test system: HEL; assay: Antiproliferative activity against human HEL cells harboring JAK2 V617F mutant assessed as inhibition of cell growth incubated for 72 hrs by MTT assay; format: functional, cell-based
pIC50: −log10 of the molar value.
Think of 6 as a floor: if pIC50 stands on it or above, it is T; beneath it, F.

Reference set (3 entries):
Ask | Please indicate if the recorded pIC50 for COc1ccc([C@H](C)NC(=O)CSc2nc3ccc(NC(=O)c4ccc(OCCN5CCCC5)c(C)c4OC)cc3s2)cc1 meets or exceeds 6.
Reply | F

Ask | Please indicate if the recorded pIC50 for CCCC(C)Oc1ccc(C(=O)Nc2ccc3nc(SCC(=O)N[C@@H](C)c4cccc(O)c4)sc3c2)c(OC)c1C (stereo partly drawn) meets or exceeds 6.
Reply | T

Ask | Please indicate if the recorded pIC50 for COc1ccc([C@H](C)NC(=O)CSc2nc3ccc(NC(=O)c4ccc(OCC(C)C)c(C)c4OC)cc3s2)cc1 meets or exceeds 6.
Reply | F

With those in mind, consider the next compound.
Ask | Please indicate if the recorded pIC50 for CCCC(C)Oc1ccc(C(=O)Nc2ccc3nc(SCC(=O)N[C@@H](C)c4ccccc4)sc3c2)cc1 (stereo partly drawn) meets or exceeds 6.
Reply | F

* * *

tested on: HEL; test: Antiproliferative activity against human HEL cells harboring JAK2 V617F mutant assessed as inhibition of cell growth incubated for 72 hrs by MTT assay; assay type: functional, cell-based
// reported IC50 for each item listed
Response body: numeric value in µM, unit text excluded.

Ask | Entry under review: COc1ccc([C@H](C)NC(=O)CSc2nc3ccc(NC(=O)c4ccc(OCCN5CCOCC5)c(C)c4OC)cc3s2)cc1 . Reported IC50?
Reply | 3.38

// next item, IC50 requested
Ask | Entry under review: CCCC(C)Oc1ccc(C(=O)Nc2ccc3nc(SCC(=O)N[C@@H](C)c4ccccc4)sc3c2)c(OC)c1C (stereo partly drawn) . Reported IC50?
Reply | 2.41

* * *

target: Signal transducer and activator of transcription 3 (Homo sapiens); test: Inhibition of IL-6 induced STAT3 transcriptional activity in human HepG2 cells incubated for 1 hr followed by stimulation with IL-6 for 5.5 hrs by luciferase reporter gene assay; assay type: cell-based
Criterion: IC50 strictly under 300 nM. Met: Fulfilled. Not met: Not fulfilled.

Ask | IC50 strictly < 300 nM for this molecule? CCCC(C)Oc1ccc(C(=O)Nc2ccc3nc(SCC(=O)N[C@@H](C)c4ccc(O)cc4)sc3c2)c(OC)c1C (some centres undefined)
Reply | Fulfilled

Ask | IC50 strictly < 300 nM for this molecule? CCCC(C)Oc1ccc(C(=O)Nc2ccc3nc(SCC(=O)N[C@@H](C)c4ccccc4)sc3c2)cc1Cl (some centres undefined)
Reply | Not fulfilled

Ask | IC50 strictly < 300 nM for this molecule? CCCC(C)Oc1ccc(C(=O)Nc2ccc3nc(SCC(=O)N[C@@H](C)c4ccccc4)sc3c2)cc1CC (some centres undefined)
Reply | Not fulfilled

Ask | IC50 strictly < 300 nM for this molecule? COc1ccc([C@H](C)NC(=O)CSc2nc3ccc(NC(=O)c4ccc(OC)c(C)c4OC)cc3s2)cc1
Reply | Fulfilled

Ask | IC50 strictly < 300 nM for this molecule? COc1ccc([C@H](C)NC(=O)CSc2nc3ccc(NC(=O)c4ccc(OCCN5CCCC5)c(C)c4OC)cc3s2)cc1
Reply | Not fulfilled

With those in mind, consider the next molecule.
Ask | IC50 strictly < 300 nM for this molecule? COc1ccc([C@H](C)NC(=O)CSc2nc3ccc(NC(=O)c4ccc(OCC(C)C)c(C)c4OC)cc3s2)cc1
Reply | Fulfilled

* * *

target: Signal transducer and activator of transcription 3 (Homo sapiens)
property-name: pKd
pKd field: float, defined as -log10 of concentration (mol/L).

Previously resolved entries follow.
Ask | Please provide the recorded pKd for O=[N+]([O-])c1ccc2c(c1)S(=O)(=O)C=C2 , tested on Signal transducer and activator of transcription 3 (Homo sapiens).
Reply | 5.82

Ask | Please provide the recorded pKd for CCCC(C)Oc1ccc(C(=O)Nc2ccc3nc(SCC(=O)N[C@@H](C)c4ccccc4)sc3c2)c(OC)c1C (stereo partly drawn) , tested on Signal transducer and activator of transcription 3 (Homo sapiens).
Reply | 7.20

// next item, pKd requested
Ask | Please provide the recorded pKd for CCCC(C)Oc1ccc(C(=O)Nc2ccc3nc(SCC(=O)N[C@@H](C)c4ccc(OC)cc4)sc3c2)c(OC)c1C (stereo partly drawn) , tested on Signal transducer and activator of transcription 3 (Homo sapiens).
Reply | 7.28

* * *

// reported pIC50 for each item listed
test system: HEL; assay: Antiproliferative activity against human HEL cells harboring JAK2 V617F mutant assessed as inhibition of cell growth incubated for 72 hrs by MTT assay; format: functional, cell-based
pIC50 field: float, defined as -log10 of concentration (mol/L).

Previously resolved entries follow.
Ask | Entry under review: N#CC[C@H](C1CCCC1)n1cc(-c2ncnc3[nH]ccc23)cn1 . Reported pIC50?
Reply | 5.85

Ask | Entry under review: CCCC(C)Oc1ccc(C(=O)Nc2ccc3nc(SCC(=O)N[C@@H](C)c4ccccc4)sc3c2)c(C)c1C (some centres undefined) . Reported pIC50?
Reply | 6.03

Ask | Entry under review: Cc1cc(Nc2nc(N[C@@H](C)c3ncc(F)cn3)ncc2Cl)[nH]n1 . Reported pIC50?
Reply | 6.14

Further cases:
Ask | Entry under review: CCCC(C)Oc1ccc(C(=O)Nc2ccc3nc(SCC(=O)N[C@@H](C)c4cccc(OC)c4)sc3c2)c(OC)c1C (some centres undefined) . Reported pIC50?
Reply | 6.06

Ask | Entry under review: COc1ccc([C@H](C)NC(=O)CSc2nc3ccc(NC(=O)c4ccc(OC(C)C)c(C)c4OC)cc3s2)cc1 . Reported pIC50?
Reply | 5.89

Ask | Entry under review: COCCOc1ccc(C(=O)Nc2ccc3nc(SCC(=O)N[C@@H](C)c4ccc(OC)cc4)sc3c2)c(OC)c1C . Reported pIC50?
Reply | 5.84

* * *

// reported pIC50 for each item listed
system: HEL; experiment: Antiproliferative activity against human HEL cells harboring JAK2 V617F mutant assessed as inhibition of cell growth incubated for 72 hrs by MTT assay; type: functional, cell-based
pIC50 field: float, defined as -log10 of concentration (mol/L).

Ask | Entry under review: CCCC(C)Oc1ccc(C(=O)Nc2ccc3nc(SCC(=O)N[C@@H](C)c4ccc(O)cc4)sc3c2)c(OC)c1C (some centres undefined) . Reported pIC50?
Reply | 6.17

Ask | Entry under review: CCCC(C)Oc1ccc(C(=O)Nc2ccc3nc(SCC(=O)N[C@@H](C)c4ccc(OC)cc4)sc3c2)c(OC)c1C (some centres undefined) . Reported pIC50?
Reply | 5.95

Ask | Entry under review: COc1ccc([C@H](C)NC(=O)CSc2nc3ccc(NC(=O)c4ccc(OC)c(C)c4OC)cc3s2)cc1 . Reported pIC50?
Reply | 5.87

Ask | Entry under review: CCCC(C)Oc1ccc(C(=O)Nc2ccc3nc(SCC(=O)N[C@@H](C)c4ccccc4O)sc3c2)c(OC)c1C (some centres undefined) . Reported pIC50?
Reply | 6.01
